B1: TPR t1 (parent)
chain: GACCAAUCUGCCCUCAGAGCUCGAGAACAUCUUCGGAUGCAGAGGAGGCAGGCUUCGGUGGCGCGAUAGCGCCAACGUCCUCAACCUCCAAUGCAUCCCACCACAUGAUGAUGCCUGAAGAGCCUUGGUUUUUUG

# Variants of: B1
# ASSAY_INFO: polymerase ribozyme fitness, log enrichment relative to wild type (log ratio); higher = more active; in vitro selection for triplet polymerase activity
// thresholds for polymerase ribozyme fitness (log ratio) classes: band 1: < -3; band 2: ≥ -3 and < -2; band 3: ≥ -2

MUTANT_DESIGNATION	ASSIGNED_CLASS
C31U C56A C73G U106A C124A	band 3
G63A U78C	band 3
C62A C101G C104U	band 2
G93U C124G	band 3
A2U G17A	band 1
C70A C115U	band 2
U96G G117U	band 2
A5U C40G G71U U87G	band 1
C3U G44C C114A A119U G122C	band 1
A43G U55C C64U C72G	band 2

**Q:** Assign a category based on measured polymerase ribozyme fitness (log ratio) for A50C G52U C94A G117A and give only the class name.
**A:** band 1

**Q:** # classify by polymerase ribozyme fitness (log ratio) band: A43G A50C C85U C89A
**A:** band 1
